Numbers sourced from patent US20020045242A1.

Tested on: Lactobacillus clearans
assayInfo: Viability of Lactobacillus clearans during storage with preservatives
conditionSet: Lactobacillus clearans, 12 months
Protocol: Here, alfalfa juice and clover juice refer to liquids which are made by adding 10-fold water to alfalfa grass or clover grass to make a juice, these being used as alfalfa juice or clover juice, respectively. […] The viability of Lactobacillus clearans is expressed as a percentage, where 100% is the viable cell count immediately after lyophilization. […] Here, the amounts in which the preservatives were added are expressed as the weight ratio of the preservative relative to the viable cell weight. […]
hey, just use Condition met if measured Changes over time during storage, Viability (%) 12 months is less than 20%, otherwise Condition not met

Look over these answered cases.
[[record]]
molecularstring = "NCC(=O)O"
assignedcategory = "Condition met"

[[record]]
molecularstring = "CSCC[C@H](N)C(=O)O"
assignedcategory = "Condition not met"

[[record]]
molecularstring = "N[C@@H](CS)C(=O)O"
assignedcategory = "Condition not met"

[[record]]
molecularstring = "N[C@@H](CSSC[C@H](N)C(=O)O)C(=O)O"
assignedcategory = "Condition not met"

[[record]]
molecularstring = "NC(=O)C[C@H](N)C(=O)O"
assignedcategory = "Condition met"


Next compound, please.
Challenge: Lab log: compare recorded Changes over time during storage, Viability (%) 12 months with 20%; is it strictly lower for CC(C)C[C@H](N)C(=O)O ?
Response given: Condition met

###

Test system: Lactobacillus clearans
assayInfo: Viability of Lactobacillus clearans during storage with preservatives
conditionSet: Lactobacillus clearans, 12 months
Here the recorded Changes over time during storage, Viability (%) 12 months is given for each entry.
The response must be a number in % with no trailing unit.

Sample answers from the record:
[[record]]
molecularstring = "OC[C@H]1O[C@@](CO)(O[C@H]2O[C@H](CO)[C@@H](O)[C@H](O)[C@H]2O)[C@@H](O)[C@@H]1O"
testedsystem = "Lactobacillus clearans"
recordedmeasurement = 5

[[record]]
molecularstring = "NCCCC(=O)O"
testedsystem = "Lactobacillus clearans"
recordedmeasurement = 25

[[record]]
molecularstring = "C[C@H](N)C(=O)O"
testedsystem = "Lactobacillus clearans"
recordedmeasurement = 5


Challenge: Tell us which Changes over time during storage, Viability (%) 12 months value is on record for N=C(N)NCCC[C@H](N)C(=O)O
Response given: 2

Challenge: Give me measured Changes over time during storage, Viability (%) 12 months, please, for this compound: NCCS(=O)(=O)O
Response given: 35

Challenge: Respond only with Changes over time during storage, Viability (%) 12 months recorded for N[C@@H](Cc1c[nH]c2ccccc12)C(=O)O
Response given: 4

###

Test system: Lactobacillus clearans
assayInfo: Effect of substances added during subculture on titer of Lactobacillus clearans
Assay type: cell-based
conditionSet: added to medium during subculture
Description: The most important amino acids constituting the bacterial cells or enzymes were studied by type for their effects on Lactobacillus clearans. We looked for substances capable of such enhancement or potentiation and conducted extensive- study.
measure: effect on titer of Lactobacillus clearans

Known effect on titer of Lactobacillus clearans results, listed for orientation:
[[record]]
compound = "NCCS(=O)(=O)O"
recordedmeasurement = "extremely effective"

[[record]]
compound = "[Mg+2]"
recordedmeasurement = "effective"

[[record]]
compound = "[Mo]"
recordedmeasurement = "effective"

[[record]]
compound = "[Zn]"
recordedmeasurement = "effective"

[[record]]
compound = "N[C@@H](CSSC[C@H](N)C(=O)O)C(=O)O"
recordedmeasurement = "extremely effective"


Challenge: Give effect on titer of Lactobacillus clearans for the following compound: CSCC[C@H](N)C(=O)O
Response given: extremely effective

Challenge: Provide effect on titer of Lactobacillus clearans value for the following compound: N[C@@H](CCC(=O)O)C(=O)O
Response given: extremely effective

Challenge: Consider the compound O=C1O[C@H]([C@@H](O)CO)C(O)=C1O and give its recorded effect on titer of Lactobacillus clearans.
Response given: effective

Challenge: Return the recorded effect on titer of Lactobacillus clearans value; entry: NC(=O)c1cccnc1 [nicotinamide]
Response given: effective

Challenge: Complete the entry with effect on titer of Lactobacillus clearans for N[C@@H](CC(=O)O)C(=O)O
Response given: extremely effective
